# credit: patent US20050058639A1

SYSTEM_NAME: T1, recombinant human MCP-3 (human, UniProt P80098 24-99)
T1 construct: also called rhMCP-3
PROTOCOL_DETAILS: ELISA, coated antigen
Please respond with reported ELISA OD for every item in the list.
One number for each entry, in OD450.

Query string: # return recorded ELISA OD for entry anti-MCP-1 mAb 3.5.1 (antibody, V domains shown) VH: QVQLVQSGAEVKKPGASVKVSCKVSGYTLSELSMHWVRQAPGKGLEWMGGFDPEDDETIYAQKFQGRVTMTEDTSTDTAFMELSSLRSEDTAVYYCATHDFWSGYFHYWGQGTLVTVSS VL: DIVMTQSPDSLAVSLGERATINCKSSQSVLYSSDNKSYLVWYQQKPGQPPKVLIYWASIRESGVPDRFSGSGSGTDFTLTISSLQAEDVAVYYCQQYYTSPWTFGQGTKVEIKR
Result string: 0.045

Query string: # return recorded ELISA OD for entry anti-MCP-1 mAb 1.13.1 (antibody, V domains shown) VH: QVQLVQSGAEVKKPGASVKVSCKVSGHTLTELSMHWVRQAPGKGLEWMGGFDPEDDETIYAQKFQDRVTMTEDTSTDTAYMELSSLRSEDTAVYYCATNDFWSGYFDCWGQGTLVTVSS VL: DIVLTQSPDSLAVCLGERATINCKSSQSVLYSPNNKNFLVWYQQRPGQPPKLLIYWASTRESGVPDRFSGSGSGTDFTLTISSLQAEDVAVYYCQQYYSSPWTFGQGTKVEIKR
Result string: 0.047

Pending binder:
Query string: # return recorded ELISA OD for entry anti-MCP-1 mAb 1.8.1 (antibody, V domains shown) VH: QVQLVQSGAEVKKPGASVKVSCKVSGHIFTELSIHWVRQAPGKGLEWMGGFDPEDGETIYAQKFQGRVTMTEDTSTDTVYMELSSLRSEDTAVYYCATNDFWSGYFDYWGQGTLVTVSS VL: DIVMTQSPGSLAVSLGERATINCKSSQSILFRSNNKNYLTWYQQKPGQPPKLLIYWASIRESGVPDRFSGSGSGSNFTLTITSLQAEDVAIYYCQQYYSSPWTFGQGTKVEIKR
Result string: 0.054
